# studyTarget: Coagulation factor XI (Homo sapiens, UniProt P03951)
# Sequence (P03951 19-387 limits assumed): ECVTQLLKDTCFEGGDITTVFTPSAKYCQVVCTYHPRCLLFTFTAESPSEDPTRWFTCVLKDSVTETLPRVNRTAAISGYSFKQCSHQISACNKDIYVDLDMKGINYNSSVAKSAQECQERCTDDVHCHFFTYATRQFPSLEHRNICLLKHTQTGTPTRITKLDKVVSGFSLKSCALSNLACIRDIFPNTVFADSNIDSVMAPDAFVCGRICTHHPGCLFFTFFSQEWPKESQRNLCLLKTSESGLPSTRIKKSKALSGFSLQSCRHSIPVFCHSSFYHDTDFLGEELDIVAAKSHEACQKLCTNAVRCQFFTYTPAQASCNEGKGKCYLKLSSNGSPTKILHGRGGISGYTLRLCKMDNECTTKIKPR
# Sequence (P03951 388-625 limits assumed): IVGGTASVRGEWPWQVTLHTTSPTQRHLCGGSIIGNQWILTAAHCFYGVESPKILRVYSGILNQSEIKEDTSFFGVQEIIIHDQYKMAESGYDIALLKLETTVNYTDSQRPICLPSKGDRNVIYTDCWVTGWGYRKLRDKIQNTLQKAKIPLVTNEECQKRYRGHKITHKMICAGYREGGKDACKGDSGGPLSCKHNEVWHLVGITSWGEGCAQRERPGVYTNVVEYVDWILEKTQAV
recordedEndpoint: IC50

IN: Query IC50 for N=C(N)NC(=O)c1nc(Cl)c(N)nc1N [AMILORIDE]
OUT: > 50 µM

====

Reported Ki, UniProtKB P00749.
Number in nM, nothing else.

>  <molecularString>
N=C(N)NC(=O)c1nc(-c2ccco2)c(N)nc1N

>  <unitSpec>
nM

>  <Ki>
776

$$$$
>  <molecularString>
N=C(N)NC(=O)c1nc(-c2cc3cc(Cl)ccc3o2)c(N)nc1N

>  <unitSpec>
nM

>  <Ki>
578

$$$$
>  <molecularString>
N#Cc1ccc2oc(-c3nc(C(=O)NC(=N)N)c(N)nc3N)cc2c1

>  <unitSpec>
nM

>  <Ki>
904

$$$$

IN: Query Ki for `N=C(N)NC(=O)c1nc(-c2ccccc2)c(N)nc1N`
OUT: 2500

IN: Query Ki for `N=C(N)NC(=O)c1nc(-c2ccc3c(c2)CCO3)c(N)nc1N`
OUT: 1480

IN: Query Ki for `CSc1ccc(-c2nc(C(=O)NC(=N)N)c(N)nc2N)cc1`
OUT: 2410

====

# studyTarget: Vitamin K-dependent protein C (Homo sapiens)
# Sequence (P04070 43-197 limits assumed): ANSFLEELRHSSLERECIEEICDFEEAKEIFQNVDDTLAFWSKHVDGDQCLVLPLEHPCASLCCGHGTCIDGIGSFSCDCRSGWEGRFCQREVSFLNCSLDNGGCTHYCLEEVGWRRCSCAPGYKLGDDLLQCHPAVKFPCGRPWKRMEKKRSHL
# Sequence (P04070 212-461 limits assumed): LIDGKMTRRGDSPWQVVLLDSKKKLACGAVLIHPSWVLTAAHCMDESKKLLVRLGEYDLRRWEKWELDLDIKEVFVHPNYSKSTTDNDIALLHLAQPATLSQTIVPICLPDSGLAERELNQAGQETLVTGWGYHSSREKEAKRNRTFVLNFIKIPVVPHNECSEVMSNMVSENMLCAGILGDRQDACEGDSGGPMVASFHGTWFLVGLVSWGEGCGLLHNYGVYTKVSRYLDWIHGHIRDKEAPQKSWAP
# assayProtocol: Inhibition of activated protein C (unknown origin) using chromogenic L-pyroGlu-L-Pro-L-Arg-p-nitroaniline as substrate
recordedEndpoint: IC50

IN: Query IC50 for N=C(N)NC(=O)c1nc(Cl)c(N)nc1N [AMILORIDE]
OUT: > 50 µM

====

# studyTarget: Tissue-type plasminogen activator (Homo sapiens)
# Sequence (P00750 whole entry): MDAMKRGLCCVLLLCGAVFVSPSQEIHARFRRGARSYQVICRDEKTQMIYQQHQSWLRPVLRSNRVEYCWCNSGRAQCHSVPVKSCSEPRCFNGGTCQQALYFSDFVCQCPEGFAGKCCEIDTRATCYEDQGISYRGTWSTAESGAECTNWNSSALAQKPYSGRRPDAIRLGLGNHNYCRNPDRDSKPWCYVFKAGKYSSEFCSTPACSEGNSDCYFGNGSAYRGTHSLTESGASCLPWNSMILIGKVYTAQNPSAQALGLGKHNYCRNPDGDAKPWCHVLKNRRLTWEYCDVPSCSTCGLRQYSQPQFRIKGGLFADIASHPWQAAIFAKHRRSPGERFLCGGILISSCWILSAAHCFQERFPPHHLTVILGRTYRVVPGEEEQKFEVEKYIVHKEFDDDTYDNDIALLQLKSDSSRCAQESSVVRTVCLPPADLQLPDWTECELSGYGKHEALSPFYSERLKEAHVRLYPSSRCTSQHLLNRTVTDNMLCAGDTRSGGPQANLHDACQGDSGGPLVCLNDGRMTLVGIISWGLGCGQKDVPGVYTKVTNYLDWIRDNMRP
recordedEndpoint: IC50

IN: Please tell me the measured IC50 for N=C(N)NC(=O)c1nc(Cl)c(N)nc1N [AMILORIDE] ; system: Tissue-type plasminogen activator (Homo sapiens).
OUT: > 20 µM

====

# studyTarget: Coagulation factor X (Homo sapiens, UniProt P00742)
# Sequence (P00742 41-179 limits assumed): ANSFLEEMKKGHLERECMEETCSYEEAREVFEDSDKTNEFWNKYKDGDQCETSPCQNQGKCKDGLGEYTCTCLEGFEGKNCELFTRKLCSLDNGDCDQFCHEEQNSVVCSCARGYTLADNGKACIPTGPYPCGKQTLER
# Sequence (P00742 235-488 limits assumed): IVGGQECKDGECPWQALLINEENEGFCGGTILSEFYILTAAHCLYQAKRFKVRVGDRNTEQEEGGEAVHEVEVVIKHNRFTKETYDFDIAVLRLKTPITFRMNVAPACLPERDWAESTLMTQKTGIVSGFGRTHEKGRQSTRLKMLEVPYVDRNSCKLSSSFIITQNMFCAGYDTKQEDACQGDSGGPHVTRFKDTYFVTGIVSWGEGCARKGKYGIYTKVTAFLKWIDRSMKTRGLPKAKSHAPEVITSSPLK
recordedEndpoint: IC50

IN: Please tell me the measured IC50 for N=C(N)NC(=O)c1nc(Cl)c(N)nc1N [AMILORIDE] ; system: Coagulation factor X (Homo sapiens, UniProt P00742).
OUT: > 50 µM

====

# studyTarget: UniProt P00734
pIC50: −log10 of the molar value.
recordedEndpoint: pIC50

IN: Please tell me the measured pIC50 for N=C(N)NC(=O)c1nc(Cl)c(N)nc1N [AMILORIDE] ; system: UniProt P00734.
OUT: < 4.70

====

# studyTarget: Urokinase-type plasminogen activator (Homo sapiens, UniProt P00749)
pKi: −log10 of the molar value.
The threshold is inclusive: pKi of exactly 6 counts as 1; values below receive 0.

Worked examples, 4 compounds total:
>  <molecularString>
COc1ccc2cc(-c3nc(C(=O)NC(=N)N)c(N)nc3N)oc2c1

>  <studyTarget>
Urokinase-type plasminogen activator (Homo sapiens, UniProt P00749)

>  <answerLabel>
1

$$$$
>  <molecularString>
N=C(N)NC(=O)c1nc(-c2ccoc2)c(N)nc1N

>  <studyTarget>
Urokinase-type plasminogen activator (Homo sapiens, UniProt P00749)

>  <answerLabel>
1

$$$$
>  <molecularString>
N=C(N)NC(=O)c1nc(-c2ccc(C(F)(F)F)cc2)c(N)nc1N

>  <studyTarget>
Urokinase-type plasminogen activator (Homo sapiens, UniProt P00749)

>  <answerLabel>
0

$$$$
>  <molecularString>
Cn1cc(-c2nc(C(=O)NC(=N)N)c(N)nc2N)cn1

>  <studyTarget>
Urokinase-type plasminogen activator (Homo sapiens, UniProt P00749)

>  <answerLabel>
1

$$$$

Attention now shifts to the item below.
IN: Hello, I need to know if `Cc1ccc2oc(-c3nc(C(=O)NC(=N)N)c(N)nc3N)cc2c1` has measured pKi not below 6. Thanks!
OUT: 1
